Reported Endpoint: melting point (°C)

[[record]]
smiles = "CN(CCCn1c2c(c(=O)[nH]c1=O)CCCC2)S(=O)(=O)c1cccc2nsnc12"
readout_unit = "°C"
number = 170


(1) CN(CCCn1c2c(c(=O)[nH]c1=O)CCCC2)S(=O)(=O)c1cn(C)cn1
(2) O=C1CCCN1CCCn1c2c(c(=O)[nH]c1=O)CCCC2
I need your help: which of the pair 1 , 2 has higher melting point? Please reply using the label of the selected record.
2
